assay info: amyloid nucleation score (Sup35N fusion, yeast selection) (log enrichment); library NNK1; higher = more nucleation; inactive = no reads after selection;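 also: zero at mode of non-aggregating sequences after 7 days selection at 30°C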
Listed next: entries and their corresponding amyloid nucleation score.

Q: Please look at this sequence and report its amyloid nucleation score: `VGGQRKVRSDDVSMDVHTAT`
Ans: 0.924

---
Q: Please look at this sequence and report its amyloid nucleation score: `GVGWISKPNHLDTFITTS`
Ans: 0.738

Q: Please look at this sequence and report its amyloid nucleation score: `FSSSWELVRLYTASCKHDSK`
Ans: 0.782

Q: Please look at this sequence and report its amyloid nucleation score: `CLMGTHILGSRVVGTPSMVR`
Ans: 0.47

---

Listed next: entries and their corresponding amyloid nucleation score.
assay info: amyloid nucleation score (Sup35N fusion, yeast selection) (log enrichment); library NNK2; higher = more nucleation; inactive = no reads after selection
Returns: the value as a bare number; no unit string appended.

For orientation, consider the following solved cases.
Q: Please look at this substance and report its amyloid nucleation score: `LLWCIERG`
Ans: 0.946

Q: Please look at this substance and report its amyloid nucleation score: `VTEIFMLAL`
Ans: -0.129

Q: Please look at this substance and report its amyloid nucleation score: `VGALCGYAVVSWYSWSLSVL`
Ans: 1.83

Q: Please look at this substance and report its amyloid nucleation score: `FKNLAFTFNLQCL`
Ans: 6.47

Q: Please look at this substance and report its amyloid nucleation score: `FPARFHACLDYKWFGTGRPS`
Ans: 2.41

---
Q: Please look at this substance and report its amyloid nucleation score: `PAKERLFRVETGRFRMKGSW`
Ans: 1.63

---

assay info: amyloid nucleation score (Sup35N fusion, yeast selection) (log enrichment); library NNK1; higher = more nucleation; inactive = no reads after selection
Binary classification by amyloid nucleation score, with 0.6 as an inclusive lower bound for 1.0; all other cases are 0.0.

Q: Say whether `LIKRVQLFV` shows amyloid nucleation score of 0.6 or more.
Ans: 0.0

---
Q: Say whether `RKFRNKAIISIIDVYRPAAI` shows amyloid nucleation score of 0.6 or more.
Ans: 1.0

Q: Say whether `AFYWLHLDGFLQLNQQMSVA` shows amyloid nucleation score of 0.6 or more.
Ans: 1.0

Q: Say whether `YIPICIRSYIKNAS` shows amyloid nucleation score of 0.6 or more.
Ans: 0.0

Q: Say whether `FSSRWSI` shows amyloid nucleation score of 0.6 or more.
Ans: 0.0

Q: Say whether `VLLSGDIRCDTSVSVTGLSH` shows amyloid nucleation score of 0.6 or more.
Ans: 0.0

---

assay info: amyloid nucleation score (Sup35N fusion, yeast selection) (log enrichment); library NNK2; higher = more nucleation; inactive = no reads after selection
property: amyloid nucleation score

For orientation, consider the following solved cases.
Q: Please look at this sequence and report its amyloid nucleation score: `FYYVFYLNSLAVAGHLRILD`
Ans: inactive

Q: Please look at this sequence and report its amyloid nucleation score: `IFNWECMDAFFSLK`
Ans: inactive

Q: Please look at this sequence and report its amyloid nucleation score: `FYMLYYQIAVSCHLCFDILV`
Ans: inactive

Q: Please look at this sequence and report its amyloid nucleation score: `DSGLSHSNQWVDFSEYPTRL`
Ans: inactive

---
Q: Please look at this sequence and report its amyloid nucleation score: `HDIVRIALHYQQRVVCAWSC`
Ans: 0.713

---

assay info: amyloid nucleation score (Sup35N fusion, yeast selection) (log enrichment); library NNK1; higher = more nucleation; inactive = no reads after selection
property: amyloid nucleation score

Q: Please look at this sequence and report its amyloid nucleation score: `WTFTVVFFLKVSSL`
Ans: 0.81

Q: Please look at this sequence and report its amyloid nucleation score: `MFVSLSSFSYLGKTLLVFFV`
Ans: inactive

Q: Please look at this sequence and report its amyloid nucleation score: `SWCLKDMSNMLLASIRRFVL`
Ans: inactive

Q: Please look at this sequence and report its amyloid nucleation score: `HRSYHYMLLHTLEDRCRKN`
Ans: inactive

---

assay info: amyloid nucleation score (Sup35N fusion, yeast selection) (log enrichment); library NNK1; higher = more nucleation; inactive = no reads after selection
property: amyloid nucleation score
Returns: the value as a bare number; no unit string appended.

Q: Please look at this substance and report its amyloid nucleation score: `SSTLFMKSYIFDPQKLNSPP`
Ans: 0.375

Q: Please look at this substance and report its amyloid nucleation score: `MMKVIAANRVY`
Ans: 0.315

Q: Please look at this substance and report its amyloid nucleation score: `DWLMMDLL`
Ans: 0.103

Q: Please look at this substance and report its amyloid nucleation score: `VRVNRLSFLNNALLFWLFAK`
Ans: 2.3

Q: Please look at this substance and report its amyloid nucleation score: `GVSMVGGHATLLG`
Ans: -0.206

Q: Please look at this substance and report its amyloid nucleation score: `LGATGIGVYTVGHTFKS`
Ans: -0.382

Q: Please look at this substance and report its amyloid nucleation score: `LMRDSCHDQQVLGCFYMSKL`
Ans: -0.215

Q: Please look at this substance and report its amyloid nucleation score: `NRKEFKCSRWHRGNWYVNAR`
Ans: -0.378

Q: Please look at this substance and report its amyloid nucleation score: `WGSASRLKVTLRRVRYTTTG`
Ans: 0.813

Q: Please look at this substance and report its amyloid nucleation score: `FSQLYMGMYPGHNLLKYHSG`
Ans: -0.275

Next up:
Q: Please look at this substance and report its amyloid nucleation score: `KGLEPLCLRSFFLWRERFRD`
Ans: -0.686

---

assay info: amyloid nucleation score (Sup35N fusion, yeast selection) (log enrichment); library NNK1; higher = more nucleation; inactive = no reads after selection
Listed next: entries and their corresponding amyloid nucleation score.
Returns: the value as a bare number; no unit string appended.

Q: Please look at this substance and report its amyloid nucleation score: `LDVFICTADHTVRYLHHTAV`
Ans: 1.08

---
Q: Please look at this substance and report its amyloid nucleation score: `KCWPLLRITSVCVFAFTGER`
Ans: 0.937

Q: Please look at this substance and report its amyloid nucleation score: `PTKSIMLFCLGLFCGYLARA`
Ans: 2.91

Q: Please look at this substance and report its amyloid nucleation score: `TCSLNLYLDSDVFLCLCCLW`
Ans: 5.65

Q: Please look at this substance and report its amyloid nucleation score: `LDRFCYLVYRRRCGYSRWQM`
Ans: 0.527

Q: Please look at this substance and report its amyloid nucleation score: `WRYRRCSYY`
Ans: 0.781

Q: Please look at this substance and report its amyloid nucleation score: `SGTFLTFPYFIFCNVMICMS`
Ans: 6.97

Q: Please look at this substance and report its amyloid nucleation score: `RKRPTGTHAVDVSRGFT`
Ans: 1.27

Q: Please look at this substance and report its amyloid nucleation score: `KAPNRE`
Ans: -0.063

Q: Please look at this substance and report its amyloid nucleation score: `ADNRVQRYTDPFLGSVSMYK`
Ans: 0.563

Q: Please look at this substance and report its amyloid nucleation score: `EAYFFEFIKYLSAPAGSGGN`
Ans: -0.855

Q: Please look at this substance and report its amyloid nucleation score: `CYGFLVSMMSYLSLVELVFL`
Ans: -0.04

Q: Please look at this substance and report its amyloid nucleation score: `LLDMNANECYLPIWWQSEVT`
Ans: 0.092

---

assay info: amyloid nucleation score (Sup35N fusion, yeast selection) (log enrichment); library NNK1; higher = more nucleation; inactive = no reads after selection
Class (by amyloid nucleation score) -- low range: < 0.5; mid range: ≥ 0.5 and < 1; high range: ≥ 1

Q: # bin lookup: classify `QSVWEYNGTFSLRYRDMTGY` by its amyloid nucleation score
Ans: low range

---
Q: # bin lookup: classify `FIEHQTRSFDKILSYAWLEA` by its amyloid nucleation score
Ans: low range

Q: # bin lookup: classify `YDLGLIVSYDLLSVKEVPDR` by its amyloid nucleation score
Ans: high range

---

assay info: amyloid nucleation score (Sup35N fusion, yeast selection) (log enrichment); library NNK1; higher = more nucleation; inactive = no reads after selection
property: amyloid nucleation score
Returns: the value as a bare number; no unit string appended.

For orientation, consider the following solved cases.
Q: Please look at this substance and report its amyloid nucleation score: `CNWVIRNPYVGPIRSNVHGS`
Ans: 0.124

Q: Please look at this substance and report its amyloid nucleation score: `GIEKLHDRITSLIFLSMGRR`
Ans: 1.8

Q: Please look at this substance and report its amyloid nucleation score: `GEIGKKNY`
Ans: 1.2

Q: Please look at this substance and report its amyloid nucleation score: `SARYTLKPQPWVHHLLK`
Ans: 0.523

Q: Please look at this substance and report its amyloid nucleation score: `NNLILPGWM`
Ans: -0.612

---
Q: Please look at this substance and report its amyloid nucleation score: `FCRKSQEKYWVPFK`
Ans: -0.667

Q: Please look at this substance and report its amyloid nucleation score: `LLSRFRNCNKFDVRQSLRQN`
Ans: 5.33

Q: Please look at this substance and report its amyloid nucleation score: `FVSVCD`
Ans: -0.049

Q: Please look at this substance and report its amyloid nucleation score: `ELTRGLWRFGAEWWATQQKT`
Ans: 0.364

Q: Please look at this substance and report its amyloid nucleation score: `PVRQSL`
Ans: 0.343
